- assayedSystem: T1, E. coli alkaline phosphatase Strep-tag®II fusion protein (E. coli, UniProt P00634 22-471 = phosphatase)
- T1 construct: mature; also called BAP-StrepII; BAP-StrepIII
- T1 sequence (P00634 22-471): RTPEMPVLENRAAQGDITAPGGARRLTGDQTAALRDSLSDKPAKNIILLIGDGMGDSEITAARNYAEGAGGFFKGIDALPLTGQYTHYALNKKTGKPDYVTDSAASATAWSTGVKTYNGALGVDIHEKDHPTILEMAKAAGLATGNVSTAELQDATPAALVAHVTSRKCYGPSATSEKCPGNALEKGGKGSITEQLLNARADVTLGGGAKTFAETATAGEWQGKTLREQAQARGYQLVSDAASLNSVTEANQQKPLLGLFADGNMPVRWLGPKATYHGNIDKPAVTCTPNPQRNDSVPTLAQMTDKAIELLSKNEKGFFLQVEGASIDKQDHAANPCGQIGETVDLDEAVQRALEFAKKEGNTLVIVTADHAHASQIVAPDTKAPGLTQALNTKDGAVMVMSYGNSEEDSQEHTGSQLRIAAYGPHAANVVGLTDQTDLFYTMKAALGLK
- testDescription: ELISA, mutein coated, BAP-StrepII titrated
Kindly supply the reported Kd values for the records listed here.
I'd appreciate it if you included the unit after the number.

Consider the binder mutein“1”-m101 (designed binder, Library 5 clone on mutein “1”) EAGITGTWYNQLGSTFIVTAGADGALTGTYVTARGNAESRYVLTGRYDSAPATDGSGTALGWTVAWKNNYRNAHSATTWSGQYVGGAEARINTQWLLTSGTTEYNAFLSTLVGHDTFTKVKPSAAS and give its recorded Kd. 14 nM

Consider the binder mutein“1”-m45 (designed binder, Library 3 clone on mutein “1”) EAGITGTWYNQLGSTFIVTAGADGALTGTYVTARGNAESRYVLTGRYDSAPATDGSGTALGWTVAWKNNYRNAHSATTWSGQYVGGAEARINTQWLLTSGTTEYNAGFSTLVGHDTFTKVKPSAAS and give its recorded Kd. 18 nM

Numbers sourced from patent US20210139545A1.
